Assay: in vivo
Conditions: male, SD, rat, po, 50 mg/kg
readout_type: half-life (h)
Answers are plain numbers, in h.

Query (molecule): Cc1cc(=O)c2c(O)cc(O)c([C@H]3CCN(C)C[C@H]3O)c2o1 ; field requested: half-life 1.06

---

Assay: in vivo
Conditions: male, SD, rat, iv, 5 mg/kg
readout_type: AUC(0-t) (ng·h/mL)
Answers are plain numbers, in ng·h/mL.

Returns the measured AUC(0-t) for the input compound. Input: Cc1cc(=O)c2c(O)cc(O)c([C@H]3CCN(C)C[C@H]3O)c2o1 1130

---

Assay: in vivo
Conditions: male, SD, rat, po, 50 mg/kg
readout_type: AUC(0-t) (ng·h/mL)
Answers are plain numbers, in ng·h/mL.

Please report the recorded AUC(0-t) for Cc1cc(=O)c2c(O)cc(O)c([C@H]3CCN(C)C[C@H]3O)c2o1 . 26400
